Values compiled from patent US8053581B2.

# testedTarget: UniProt P11597
# Sequence (P11597 18-493): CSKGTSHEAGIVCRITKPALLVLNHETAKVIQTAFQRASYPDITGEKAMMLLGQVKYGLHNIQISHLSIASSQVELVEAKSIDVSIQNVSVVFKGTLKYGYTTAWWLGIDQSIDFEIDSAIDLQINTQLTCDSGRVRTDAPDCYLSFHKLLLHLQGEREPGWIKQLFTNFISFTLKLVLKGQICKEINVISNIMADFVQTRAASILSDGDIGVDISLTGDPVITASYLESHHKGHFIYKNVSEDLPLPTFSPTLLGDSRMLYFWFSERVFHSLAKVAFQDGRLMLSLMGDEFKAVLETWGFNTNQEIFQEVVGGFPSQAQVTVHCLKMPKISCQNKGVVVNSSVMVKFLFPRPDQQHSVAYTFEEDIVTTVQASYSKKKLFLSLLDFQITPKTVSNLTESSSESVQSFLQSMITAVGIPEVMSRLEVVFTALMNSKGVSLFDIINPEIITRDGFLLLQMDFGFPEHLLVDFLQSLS
measuredEndpoint: pIC50
The meaning of pIC50 here: minus log10 of the concentration in molar units.

Field request: pIC50 | item: COc1ccc(-c2nc(N3CCOCC3)sc2Cc2ccccc2)cc1
4.12
